# target_desc: T1, OX40 (CD134) (Mus musculus, UniProt P47741 P47741:20-211)
# T1 sequence: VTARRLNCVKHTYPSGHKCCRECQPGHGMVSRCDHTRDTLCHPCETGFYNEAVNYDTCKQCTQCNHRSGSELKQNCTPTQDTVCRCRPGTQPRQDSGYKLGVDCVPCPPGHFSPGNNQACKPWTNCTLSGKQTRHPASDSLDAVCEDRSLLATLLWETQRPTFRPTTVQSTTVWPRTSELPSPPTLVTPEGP
# experiment: filter; 20 mM Hepes pH 7.4, 150 mM NaCl, 2 mM CaCl2; Kd not given
# measurement_parameters: tags: human IgG Fc fusion; chain copies: 2; label: 5' 32P
endpoint: binding result

stdin: Quick one: binding result of OX40 aptamer SEQ 77 (ssRNA, 2'-F pyrimidines, 2'-OH purines) RNA: GGGAGGACGAUGCGGCAGUCUGCAUCGUAGGAAUCGCCACCGUAUACUUUCCCACCAGACGACUCGCUGAGGAUCCGAGA ?
stdout: binds

stdin: Quick one: binding result of OX40 aptamer SEQ 85 (ssRNA, 2'-F pyrimidines, 2'-OH purines) RNA: GGGAGGACGAUGCGGCACUAACUCCAGCGACUCCAUCGCCAUUCCAACUCUACGCCAGACGACUCGCUGAGGAUCCGAGA ?
stdout: binds

stdin: Quick one: binding result of OX40 aptamer SEQ 78 (ssRNA, 2'-F pyrimidines, 2'-OH purines) RNA: GGGAGGACGAUGCGGAUACCAGGAUCACAUCCUGAGGAACCCCGGCUCCCAACCUCAGACGACUCGCUGAGGAUCCGAGA ?
stdout: binds
